- testTarget: T1, recombinant human glycophorin A ectodomain protein (human, UniProt P02724 20-91)
- T1 construct: 72 amino acids of the extracellular region; also called Hu-rec GPA
- T1 sequence: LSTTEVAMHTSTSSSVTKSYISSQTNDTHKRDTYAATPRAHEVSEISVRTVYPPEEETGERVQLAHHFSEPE
- testName: ELISA, Fab on coated recombinant human GPA ectodomain
measuredProperty: binding in ELISA relative to parental Fab

Known binding in ELISA relative to parental Fab results, listed for orientation:
>  <binder>
TPP-5696, Hu6C12-24 Fab variant VH: (D66G, L70M) (Fab, V domains shown, Built on the parental Fab TPP-4935) VH: EVQLVQSGAEVKKPGASVKVSCKASGYTFTTYTIHWVRQAPGQGLEWIGYINPSSDYTRYNPKFKGRVTMTTDKSTSTAYMELRSLRSDDTAVYYCQTGTRDYWGQGTTVTVSS VL: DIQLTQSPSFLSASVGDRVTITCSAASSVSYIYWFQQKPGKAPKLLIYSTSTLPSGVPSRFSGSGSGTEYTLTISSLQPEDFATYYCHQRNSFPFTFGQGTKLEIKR

>  <measuredValue>
1.2 relative to parental Fab

$$$$
>  <binder>
TPP-4935, humanized 6C12 parental Fab (Hu6C12-24) (Fab, V domains shown, also called parent Fab; TPP-4935 (Parental)) VH: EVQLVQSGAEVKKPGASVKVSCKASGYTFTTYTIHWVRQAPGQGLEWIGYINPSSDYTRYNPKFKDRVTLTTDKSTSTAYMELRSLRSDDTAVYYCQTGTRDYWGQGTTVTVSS VL: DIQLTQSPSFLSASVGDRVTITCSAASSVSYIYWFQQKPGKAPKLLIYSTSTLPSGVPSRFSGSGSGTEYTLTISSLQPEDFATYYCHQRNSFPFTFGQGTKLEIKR

>  <measuredValue>
1 relative to parental Fab

$$$$

// switching to the query binder
What the record says about TPP-5703, Hu6C12-24 Fab variant VL: (N91S) (Fab, V domains shown, Built on the parental Fab TPP-4935) VH: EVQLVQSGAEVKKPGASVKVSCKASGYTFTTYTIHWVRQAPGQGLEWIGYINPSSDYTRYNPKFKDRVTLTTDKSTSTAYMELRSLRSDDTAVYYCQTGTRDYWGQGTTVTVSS VL: DIQLTQSPSFLSASVGDRVTITCSAASSVSYIYWFQQKPGKAPKLLIYSTSTLPSGVPSRFSGSGSGTEYTLTISSLQPEDFATYYCHQRSSFPFTFGQGTKLEIKR : binding in ELISA relative to parental Fab is 1.1 relative to parental Fab
